# Test system: M14 melanoma
# Protocol Notes: NCI-60 one-dose screen, 48 h (100 = growth as untreated, 0 = no growth, -100 = all killed)
# Experimental Context: 10 µM
The panel holds about 83,000 compounds, 20% with a hit somewhere; the sample as a whole holds those more often.
Catalogue of compounds with associated growth
Your answer should be a plain number; it is taken to be in %.

Guide cases for growth, answers given:
[[record]]
compound = "c1ccc2c(c1)oc1c3cccnc3ccc21"
recorded_measurement = 100

[[record]]
compound = "CC(=O)N1N=C(c2ccc(Cl)cc2)CC1c1sc(Cl)nc1Cl (stereo not drawn)"
recorded_measurement = 94.6

[[record]]
compound = "CCOC(=O)C(=Cc1ccc(Br)cc1)C(=O)OCC"
recorded_measurement = -22


# input Endpoint output: growth of `COc1cc(C(=O)/C=C/c2cc(-c3cc(OC)c(OC)c(OC)c3)n[nH]2)cc(OC)c1OC` . Value?
# output 6.7

# input Endpoint output: growth of `N=c1c2c(-c3ccccc3)c(-c3ccccc3)n(Cc3ccccc3)c2ncn1CCCO` . Value?
# output 43.4

# input Endpoint output: growth of `CC(C)(C)c1cc(Br)cc(C(C)(C)C)c1O` . Value?
# output 115

# input Endpoint output: growth of `COc1ccc2c(c1)C(=O)c1c-2c(OCCN(C)C)nc2ccccc12` . Value?
# output 30
